# test.target: DN quality control product recombinant protein (a recombinant antigen produced by the company itself) (dengue virus)
# test.description: AMO sensor, antibody on sensor, antigen in solution
assay.endpoint: kon (M⁻¹ s⁻¹)
Enter your answer as a number in M⁻¹ s⁻¹; do not include the unit.

WT 1-7 (antibody, V domains shown) VH: QVQLQQSGAELVRPGTSVKISCKASGYSFTEYWIGWVKQRPGHGLEWIGDMVPGDLYINYQEKFKGKATLTADTSSNTAYMQLSSLTSEDSAVYFCTNFITVGGVDYWGRGTSLTVSS VL: DVVMTQTPLTLSVTIGQPASISCKSSQSLLESDGKTYLNWLLQRPGQSPKRLIYLVTKIDSGVPDRFTGSGSVTDFTLKISRVESEDLGVYYCWYGTHFAHTFGAGTKLEVKR = 3530

Here is another binder to look at.
Prompt: Hello, please tell me recorded kon for this one: Mutation 1-25 (antibody, V domains shown) VH: QVQLQQSGAELVRPGTSVKISCKASGYTFTEYWIGWVKQRPGHGLEWIGDMFPGDVYINYQEKFKGKATLTADTSSNTAYMQLSSLTSEDSAVYFCTNFLTLGGLDYWGRGTSLTVSS VL: DVVMTQTPLTLSVTIGQPASISCKSSNSLLDSDGRTYLNWLLQRPGQSPKRLIYLVSKIDSGVPDRFTGSGSVTDFTLKISRVESEDLGVYYCWYGTHFPHTFGAGTKLEVKR
Response: 45100
